Can you tell me IC50 for the items I'm about to list?
tgt: α2A-AR (Homo sapiens, UniProt P08913)
Construct: expressed in transfected cells; stably expressing α2A-AR/Gα16
Sequence (P08913 whole entry): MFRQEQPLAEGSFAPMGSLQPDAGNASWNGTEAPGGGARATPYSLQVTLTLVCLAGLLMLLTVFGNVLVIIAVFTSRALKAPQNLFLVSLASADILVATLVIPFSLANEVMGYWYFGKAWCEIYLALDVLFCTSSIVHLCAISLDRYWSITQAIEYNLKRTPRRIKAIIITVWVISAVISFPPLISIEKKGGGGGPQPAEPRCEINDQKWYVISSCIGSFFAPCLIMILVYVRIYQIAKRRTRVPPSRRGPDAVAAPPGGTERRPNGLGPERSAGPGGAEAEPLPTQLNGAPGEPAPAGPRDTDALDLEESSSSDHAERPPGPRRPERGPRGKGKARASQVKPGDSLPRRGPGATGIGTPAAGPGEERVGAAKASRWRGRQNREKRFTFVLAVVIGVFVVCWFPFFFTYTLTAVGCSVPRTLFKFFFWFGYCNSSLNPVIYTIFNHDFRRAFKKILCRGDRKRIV
method description: α2A-AR antagonist assay (calcium flux, Fluo-4, FlexStation II)
Type: cell-based
setup conditions: antagonistic activity against agonist UK14304 in cells stably expressing α2A-AR/Ga16

1) O[C@H]1CC[C@H]2CN3CCc4c([nH]c5ccccc45)[C@@H]3C[C@@H]2[C@H]1c1nc(Cc2c(Cl)cccc2Cl)no1 [Compound C12] :: 0.1 to 0.3 µM
2) O[C@H]1CC[C@H]2CN3CCc4c([nH]c5ccccc45)[C@@H]3C[C@@H]2[C@H]1c1nc(-c2ccncc2)no1 [Compound C24] :: 0.5 to 2 µM
3) COc1ccc(Cc2noc([C@@H]3[C@H]4C[C@H]5c6[nH]c7ccccc7c6CCN5C[C@@H]4CC[C@@H]3O)n2)cc1 [Compound C6] :: < 0.1 µM
4) N#Cc1ccc(Cc2noc([C@@H]3[C@H]4C[C@H]5c6[nH]c7ccccc7c6CCN5C[C@@H]4CC[C@@H]3O)n2)cc1 [Compound C19] :: 0.3 to 0.5 µM
5) CN(C)c1cccc(Cc2noc([C@@H]3[C@H]4C[C@H]5c6[nH]c7ccccc7c6CCN5C[C@@H]4CC[C@@H]3O)n2)c1 [Compound C34] :: 0.1 to 0.3 µM
6) O[C@H]1CC[C@H]2CN3CCc4c([nH]c5ccccc45)[C@@H]3C[C@@H]2[C@H]1c1nc(Cc2ccccc2Br)no1 [Compound C14] :: < 0.1 µM
7) COC(=O)c1ccc(Cc2noc([C@@H]3[C@H]4C[C@H]5c6[nH]c7ccccc7c6CCN5C[C@@H]4CC[C@@H]3O)n2)cc1 [Compound C29] :: 0.1 to 0.3 µM
8) COCc1noc([C@@H]2[C@H]3C[C@H]4c5[nH]c6ccccc6c5CCN4C[C@@H]3CC[C@@H]2O)n1 [Compound C22] :: 0.1 to 0.3 µM
9) O[C@H]1CC[C@H]2CN3CCc4c([nH]c5ccccc45)[C@@H]3C[C@@H]2[C@H]1c1nc(Cc2ccc(F)cc2)no1 [Compound C9] :: 0.5 to 2 µM
10) O[C@H]1CC[C@H]2CN3CCc4c([nH]c5ccccc45)[C@@H]3C[C@@H]2[C@H]1c1nc(Cc2ccccc2F)no1 [Compound C7] :: 0.5 to 2 µM

Hello, I would appreciate it if you could give IC50 for each entry below.
1. O[C@H]1CC[C@H]2CN3CCc4c([nH]c5ccccc45)[C@@H]3C[C@@H]2[C@H]1c1nc(-c2ccccc2)no1 [Compound C23]
2. O=C(O)c1ccc(Cc2noc([C@@H]3[C@H]4C[C@H]5c6[nH]c7ccccc7c6CCN5C[C@@H]4CC[C@@H]3O)n2)cc1 [Compound C30]
3. N#Cc1ccccc1Cc1noc([C@@H]2[C@H]3C[C@H]4c5[nH]c6ccccc6c5CCN4C[C@@H]3CC[C@@H]2O)n1 [Compound C17]

Solution:
1: 0.3 to 0.5 µM; 2: 0.3 to 0.5 µM; 3: 0.1 to 0.3 µM
